These data points were gathered from patent US20020103123A1.

# subject-of-test: T1, human hippocampal Y5 receptor (human)
# T1 chain: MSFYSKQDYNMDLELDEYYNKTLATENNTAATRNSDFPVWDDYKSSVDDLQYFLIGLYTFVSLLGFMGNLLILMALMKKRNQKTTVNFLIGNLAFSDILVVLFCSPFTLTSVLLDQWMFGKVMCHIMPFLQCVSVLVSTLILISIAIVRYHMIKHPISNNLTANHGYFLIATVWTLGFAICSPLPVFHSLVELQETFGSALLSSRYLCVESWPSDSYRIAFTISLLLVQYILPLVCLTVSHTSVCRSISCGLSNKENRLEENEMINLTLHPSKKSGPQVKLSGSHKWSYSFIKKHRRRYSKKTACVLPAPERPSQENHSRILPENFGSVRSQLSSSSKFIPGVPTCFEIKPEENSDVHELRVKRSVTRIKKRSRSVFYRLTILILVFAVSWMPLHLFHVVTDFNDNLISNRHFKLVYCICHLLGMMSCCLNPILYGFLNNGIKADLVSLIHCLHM
# assay-comment: 125I-PYY3-36 displacement, LM(tk-) membranes
Ends that are not written are not given here.
measurement-type: Ki (nM)

input: Any idea what its Ki is? The binder is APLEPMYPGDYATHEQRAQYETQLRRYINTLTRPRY [rat PP]
output: 130

(I) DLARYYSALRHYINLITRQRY (ends and bridges not checked) [porcine NPY16-36]
(II) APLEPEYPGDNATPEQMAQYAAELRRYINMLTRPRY [bovine PP]
(III) PLEPVY [human PP31-36]
input: Sort ascending by Ki. Order the labels as requested and give them as your answer.
output: II, I, III
